FYI, the data here is from patent US4394446A.

experiment: Acute toxicity in the mouse; format: in vivo; conditions: in vivo, iv
Property name: LD50

Task: Give its LD50 value. Item: Nc1nc2c(ncn2[C@@H]2O[C@H](CO)[C@@H](O)[C@H]2O)c(=O)o1 [oxanosine]
Output: > 200 mg/kg
